Test system: primary human hepatic stellate cells (donor 1)
Assay Procedure: scaled lipid accumulation score (0 = DMSO-like, 1 = nortriptyline-like); higher = stronger HSC inactivation (lipid re-accumulation), active = hit call of the paper
Reported Conditions: library stock concentration: 10 mM; 48 h
Structures can show the parent of a compound that is named as a salt. Among all 5,800 compounds or so, about 620 (11%) showed activity.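 How the source made its calls: active = score above a cut-off or among the top three wells of a plate; in these data no inactive exceeds 0.85.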 This is one part of a sample in which actives are shown more often than they occur.
Hi there, use one of these labels in your reply, thanks! 1 (active), 0 (inactive)

> print(dat)
                                   compound  qualitative.label
1  Cc1ccc(C(=O)Nc2ccc(CN3CCN(C)CC3)c(C(F)(F)F)c2)cc1C#Cc1cnc2cccnn12                  1
2  Cc1ccc(-n2[nH]c(C)c(N=Nc3cccc(-c4cccc(C(=O)O)c4)c3O)c2=O)cc1C [Eltrombopag]                  0
3  CN1[C@@H](CC(=O)c2ccccc2)CCC[C@H]1C[C@H](O)c1ccccc1                  0
4  CN1CCC[C@@H]1CCO[C@](C)(c1ccccc1)c1ccc(Cl)cc1.O=C(O)/C=C/C(=O)O [Clemastine fumarate]                  1
5  COc1cc2ncnc(Nc3cccc(Cl)c3)c2cc1OC [Tyrphostin AG 1478]                  1
6                CC(=NNC(=S)N1CCC1)c1ccccn1                  0
7  CN(C)C(=O)C(CCN1CCC(O)(c2ccc(Cl)cc2)CC1)(c1ccccc1)c1ccccc1 [Loperamide HCl]                  0
8  COc1cc2ncnc(Nc3cccc(Cl)c3)c2cc1OC [AG-1478 (Tyrphostin AG-1478)]                  1

QUERY: Answer briefly: the call reported for COc1cc2ncnc(Nc3ccc(Oc4ccccc4)cc3)c2cc1OC in this assay.
RESULT: 0

QUERY: Answer briefly: the call reported for Br.Br.CN(CCc1ccc(Cl)c(Cl)c1)CCN1CCCC1 [BD 1008 dihydrobromide] in this assay.
RESULT: 1

QUERY: Answer briefly: the call reported for O=C(O)COCCN1CCN(C(c2ccccc2)c2ccc(Cl)cc2)CC1 (stereo not drawn) [Cetirizine DiHCl] in this assay.
RESULT: 0

QUERY: Answer briefly: the call reported for CCn1c2ccccc2c2cc(Nc3ccnc(NCCCN4CCOCC4)n3)ccc21 in this assay.
RESULT: 0

QUERY: Answer briefly: the call reported for COc1cc(/C=C(\C#N)C(=O)Nc2nnc(C(F)(F)F)s2)ccc1OCc1ccc(C(F)(F)F)cc1C(F)(F)F in this assay.
RESULT: 0

QUERY: Answer briefly: the call reported for CCCCC1(C2CCCC2)Cc2cc(OCC(=O)O)c(Cl)c(Cl)c2C1=O (stereo in doubt) [R(+)-Butylindazone] in this assay.
RESULT: 0

QUERY: Answer briefly: the call reported for CCN1CCN(Cc2ccc(Nc3ncc4c(n3)N(C)c3ccccc3C(=O)N4C)cc2C(F)(F)F)CC1 in this assay.
RESULT: 0

QUERY: Answer briefly: the call reported for CN1CCN(CCc2ccc(Cl)c(Cl)c2)CC1 [BD 1063 dihydrochloride] in this assay.
RESULT: 0

QUERY: Answer briefly: the call reported for CCn1c2ccccc2c2cc(CNC)ccc21.Cl in this assay.
RESULT: 1

QUERY: Answer briefly: the call reported for Cc1nc(N)ncc1-c1nc(N2CCOCC2)c2sc(C(C)(C)O)cc2n1 in this assay.
RESULT: 0

====

System: primary human hepatic stellate cells (donor 1)
Assay Procedure: scaled lipid accumulation score (0 = DMSO-like, 1 = nortriptyline-like); higher = stronger HSC inactivation (lipid re-accumulation), active = hit call of the paper
Reported Conditions: library stock concentration: 10 mM; 48 h
Screen size: about 5,800 compounds; about 620 (11%) showed activity. The entries come from a sample that favours actives as a whole.
Recorded Metric: scaled lipid accumulation score

Past entries and their recorded results:
Molecule	Recorded Metric	Measured Value
COc1cc2c(Nc3ccc(Br)cc3F)ncnc2cc1OCC1CCN(C)CC1	scaled lipid accumulation score	1.66 (active)
CO/N=C1\C[C@]2(C[C@@H]3C[C@@H](C/C=C(\C)C[C@@H](C)/C=C/C=C4\CO[C@@H]5[C@H](O)C(C)=C[C@@H](C(=O)O3)[C@]45O)O2)O[C@H](/C(C)=C/C(C)C)[C@H]1C	scaled lipid accumulation score	≤ 0 (inactive)
O=[N+]([O-])c1cc(Cl)ccc1S(=O)(=O)N1CCN(Cc2ccccc2)CC1	scaled lipid accumulation score	0.048 (inactive)

QUERY: Answer briefly: scaled lipid accumulation score recorded on primary human hepatic stellate cells (donor 1) for CNc1nc(Nc2cn(C(C)(C)C#N)nc2C)ncc1C(F)(F)F
RESULT: 0.132 (inactive)

QUERY: Answer briefly: scaled lipid accumulation score recorded on primary human hepatic stellate cells (donor 1) for COc1cc2/c(=N/c3ccc(Br)cc3F)nc[nH]c2cc1OCC1CCN(C)CC1 [Vandetanib (ZD6474, Zactima) (10 mM)]
RESULT: 0.445 (inactive)

====

Test system: primary human hepatic stellate cells (donor 1)
Assay Procedure: scaled lipid accumulation score (0 = DMSO-like, 1 = nortriptyline-like); higher = stronger HSC inactivation (lipid re-accumulation), active = hit call of the paper
Reported Conditions: library stock concentration: 10 mM; 48 h
Among all 5,800 compounds or so, about 620 (11%) showed activity. The entries come from a sample that favours actives as a whole.
Recorded Metric: scaled lipid accumulation score

QUERY: Provide measured scaled lipid accumulation score value, entry: O=C(O)c1cc(=O)c2cccc(O)c2[nH]1
RESULT: ≤ 0 (inactive)

QUERY: Provide measured scaled lipid accumulation score value, entry: COc1ccc2[nH]c(I)c(CCNC(C)=O)c2c1
RESULT: 0.011 (inactive)

QUERY: Provide measured scaled lipid accumulation score value, entry: COc1cc2c(NC3CCN(C(C)C)CC3)nc(C3CCCCC3)nc2cc1OCCCN1CCCC1
RESULT: 0.14 (inactive)

QUERY: Provide measured scaled lipid accumulation score value, entry: CC(S)C(=O)NCC(=O)O (stereo not given)
RESULT: ≤ 0 (inactive)

QUERY: Provide measured scaled lipid accumulation score value, entry: NC(=O)[C@@H]1CCCN1C(=O)[C@H](Cc1c[nH]cn1)NC(=O)[C@@H]1CCC(=O)N1
RESULT: ≤ 0 (inactive)

QUERY: Provide measured scaled lipid accumulation score value, entry: O=C(O)CCCC[C@@H]1CCSS1
RESULT: ≤ -0.027 (inactive)

QUERY: Provide measured scaled lipid accumulation score value, entry: CC(S)C(=O)NCC(=O)O (stereo not given) [Tiopronin]
RESULT: ≤ 0 (inactive)

QUERY: Provide measured scaled lipid accumulation score value, entry: CC(C)(C)Cn1c(N)nc2ccc(-c3[nH]c(C(C)(C)C)nc3-c3ccc(F)cc3)nc21
RESULT: 0.268 (inactive)

QUERY: Provide measured scaled lipid accumulation score value, entry: O=S(=O)(O)Oc1ccc(C(c2ccc(OS(=O)(=O)O)cc2)c2ccccn2)cc1 [Sodium Picosulfate]
RESULT: ≤ -0.001 (inactive)

QUERY: Provide measured scaled lipid accumulation score value, entry: CCOC(=O)c1[nH]c2cc(Cl)ccc2c1C(C(=O)NC(C)(C)C)N(C=O)Cc1ccc(Cl)cc1 (stereo not given)
RESULT: 0.547 (inactive)

====

System: primary human hepatic stellate cells (donor 1)
Assay Procedure: scaled lipid accumulation score (0 = DMSO-like, 1 = nortriptyline-like); higher = stronger HSC inactivation (lipid re-accumulation), active = hit call of the paper
Reported Conditions: library stock concentration: 10 mM; 48 h
Structures can show the parent of a compound that is named as a salt. About 620 (11%) of roughly 5,800 compounds showed activity.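 How the source made its calls: active = score above a cut-off or among the top three wells of a plate; in these data no inactive exceeds 0.85.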 For the sample, actives were picked, then their nearest neighbours and some compounds at random.
Hi there, use one of these labels in your reply, thanks! active, inactive

> print(dat)
                                    compound                               target.desc  qualitative.label
 1    CC(C)N(CCC(=O)c1ccc2ccccc2c1)Cc1ccccc1  primary human hepatic stellate cells (donor 1)           inactive
 2  CN(C)CCOC(=O)COc1ccc(Cl)cc1 [Centrophenoxine hydrochloride]  primary human hepatic stellate cells (donor 1)           inactive
 3  CC(COc1ccccc1)N(CCCl)Cc1ccccc1 (centres undefined) [Dibenzyline]  primary human hepatic stellate cells (donor 1)           inactive
 4  CC(COc1ccccc1)N(CCCl)Cc1ccccc1 (centres undefined) [Phenoxybenzamine HCl]  primary human hepatic stellate cells (donor 1)           inactive
 5  CN(C)CCOC(=O)COc1ccc(Cl)cc1 [Meclofenoxate (Centrophenoxine) HCl]  primary human hepatic stellate cells (donor 1)           inactive
 6  CC(C)NCC(O)COc1ccccc1-n1cccc1 (centres undefined) [Isamoltane hemifumarate]  primary human hepatic stellate cells (donor 1)           inactive
 7            COc1cc(C)c(Cc2cnc(N)nc2N)cc1OC  primary human hepatic stellate cells (donor 1)           inactive
 8  O=C(O)Cn1c(C(=O)Nc2nc(-c3ccccc3Cl)cs2)cc2ccccc21  primary human hepatic stellate cells (donor 1)           inactive
 9  COc1cc2c(cc1Cc1cccc(Cl)c1F)c(=O)c(C(=O)O)cn2[C@H](CO)C(C)C [Elvitegravir (GS-9137, JTK-303)]  primary human hepatic stellate cells (donor 1)           inactive
10  CN(C)CCOC(=O)COc1ccc(Cl)cc1 [Meclofenoxate hydrochloride]  primary human hepatic stellate cells (donor 1)           inactive

QUERY: Answer briefly: the call reported for CC(C)N(CCC(=O)c1ccc2ccccc2c1)Cc1ccccc1.Cl in this assay.
RESULT: active

QUERY: Answer briefly: the call reported for OCCOc1ccc(/C(=C(/CCCl)c2ccccc2)c2ccccc2)cc1 [Ospemifene] in this assay.
RESULT: inactive

QUERY: Answer briefly: the call reported for CC(C)NCC(O)c1ccc2ccccc2c1 (centres undefined) [Pronethalol hydrochloride] in this assay.
RESULT: inactive

QUERY: Answer briefly: the call reported for CC(C)NCC(O)c1ccc2ccccc2c1 (centres undefined) [Pronetalol hydrochloride] in this assay.
RESULT: inactive

QUERY: Answer briefly: the call reported for N[C@H]1C(O)O[C@H](CO)[C@@H](O)[C@@H]1O (some centres undefined) [Glucosamine hydrochloride] in this assay.
RESULT: inactive

QUERY: Answer briefly: the call reported for CN(C)CCOc1ccc(C(=C(CCCl)c2ccccc2)c2ccccc2)cc1.O=C(O)CC(O)(CC(=O)O)C(=O)O [Toremifene Citrate] in this assay.
RESULT: active

QUERY: Answer briefly: the call reported for CN(C)CCOc1ccc(/C(=C(/CCCl)c2ccccc2)c2ccccc2)cc1.O=C(O)CC(O)(CC(=O)O)C(=O)O in this assay.
RESULT: active

QUERY: Answer briefly: the call reported for CN(C)CCOc1ccc(/C(=C(/CCCl)c2ccccc2)c2ccccc2)cc1 in this assay.
RESULT: inactive

QUERY: Answer briefly: the call reported for COc1ccc2nc3cc(Cl)ccc3c(Nc3cc(CN4CCCC4)c(O)c(CN4CCCC4)c3)c2n1 in this assay.
RESULT: inactive
